Values were extracted from patent US11420969B2.

target: CYP2C9 (Homo sapiens, UniProt P11712); construct: from tissue; host or cells: human liver microsomes; test: CYP inhibition assay, human liver microsomes, substrate diclofenac; assay type: in vitro ADME; settings: human liver microsomes, 10 min incubation, LC-MS/MS; read-out: CYP Inhibition Activity (IC50/nM) CYP2C9
Sequence (P11712 whole entry): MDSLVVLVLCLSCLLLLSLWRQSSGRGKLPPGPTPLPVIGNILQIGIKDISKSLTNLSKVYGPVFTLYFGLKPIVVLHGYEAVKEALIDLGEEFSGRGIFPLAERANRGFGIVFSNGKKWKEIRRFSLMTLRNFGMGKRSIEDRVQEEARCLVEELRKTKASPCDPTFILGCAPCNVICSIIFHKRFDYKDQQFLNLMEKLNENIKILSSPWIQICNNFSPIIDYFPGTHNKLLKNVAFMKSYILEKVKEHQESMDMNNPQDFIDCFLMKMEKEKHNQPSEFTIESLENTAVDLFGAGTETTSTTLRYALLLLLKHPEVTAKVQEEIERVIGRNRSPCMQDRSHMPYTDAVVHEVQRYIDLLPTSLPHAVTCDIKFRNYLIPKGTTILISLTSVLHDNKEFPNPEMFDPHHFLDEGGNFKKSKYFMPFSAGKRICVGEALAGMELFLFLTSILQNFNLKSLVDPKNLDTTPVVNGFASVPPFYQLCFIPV
Assay Readout: log10 IC50 (log10 of the value in nM)
A value of 2 here means IC50 of 100 in nM, since values are log10.

Some entries whose results are on file:
Compound	log10 IC50
O=C(Nc1cc(Cl)ccc1N1CCC(O)CC1)c1ccc(C2CCOCC2)o1	4.04
CC1(O)CCN(c2ccc(OC(F)(F)F)cc2NC(=O)c2ccc(-c3ccncc3)o2)CC1	3.25

// query Returns the measured log10 IC50 for the input compound. Input: `CC1(CO)CCN(c2ccc(Cl)cc2NC(=O)c2ccc(C3CCOCC3)o2)CC1`
// result 3.45

// query Returns the measured log10 IC50 for the input compound. Input: `CN1CCC2(CCN(c3ccc(C(F)(F)F)cc3NC(=O)c3ccc(C4CCOCC4)o3)CC2)C1=O`
// result 3.86

// query Returns the measured log10 IC50 for the input compound. Input: O=C(Nc1cc(C2CC2)ccc1N1CCCC(O)CC1)c1ccc(C2CCOCC2)o1 (racemic)
// result 3.86

// query Returns the measured log10 IC50 for the input compound. Input: `CC1(O)CCN(c2ccc(C3CC3)cc2NC(=O)c2ccc(C3CCOCC3)o2)CC1`
// result 3.58

// query Returns the measured log10 IC50 for the input compound. Input: `Cc1ccc(N2CCC(O)(CC3CC3)CC2)c(NC(=O)c2ccc(C3CCOCC3)o2)c1`
// result 3.26

* * *

molecular target: CYP2C9 (Homo sapiens, UniProt P11712); construct: from tissue; host or cells: human liver microsomes; assay: CYP inhibition assay, human liver microsomes, substrate diclofenac; type: in vitro ADME; settings: human liver microsomes, 10 min incubation, LC-MS/MS; read-out: CYP Inhibition Activity (IC50/nM) CYP2C9
Assay Readout: IC50 (nM)
Field: numeric (nM). Do not append units.

Compound	IC50 [nM]
Cc1ccc(N2CCC(C)(C(=O)N(C)C)CC2)c(NC(=O)c2ccc(C3CCOCC3)o2)c1	800
CC1(CO)CCN(c2ccc(C(F)(F)F)cc2NC(=O)c2ccc(C3CCOCC3)o2)CC1	4960
CC1(N)CCN(c2ccc(C(F)(F)F)cc2NC(=O)c2ccc(-c3ccncc3)o2)CC1	14100
O=C(Nc1cc(C(F)(F)F)ccc1N1CCN(Cc2cocn2)CC1)c1ccc(-c2ccncc2)o1 [Reference Example 4, reference compound]	170
CC1(C(=O)N2CCOCC2)CCN(c2ccc(C(F)(F)F)cc2NC(=O)c2ccc(C3CCOCC3)o2)CC1	1000

From here, focus on the item given below.
// query Item CC1(O)CCCN(c2ccc(Cl)cc2NC(=O)c2ccc(-c3ccncc3)o2)CC1 (racemic) with CYP2C9 (Homo sapiens, UniProt P11712) - IC50?
// result 7670

* * *

molecular target: SRPK1 (Homo sapiens); test: In vitro SRPK1 assay (Kinase-Glo); assay type: biochemical
Sequence (Q96SB4 whole entry, species assumed): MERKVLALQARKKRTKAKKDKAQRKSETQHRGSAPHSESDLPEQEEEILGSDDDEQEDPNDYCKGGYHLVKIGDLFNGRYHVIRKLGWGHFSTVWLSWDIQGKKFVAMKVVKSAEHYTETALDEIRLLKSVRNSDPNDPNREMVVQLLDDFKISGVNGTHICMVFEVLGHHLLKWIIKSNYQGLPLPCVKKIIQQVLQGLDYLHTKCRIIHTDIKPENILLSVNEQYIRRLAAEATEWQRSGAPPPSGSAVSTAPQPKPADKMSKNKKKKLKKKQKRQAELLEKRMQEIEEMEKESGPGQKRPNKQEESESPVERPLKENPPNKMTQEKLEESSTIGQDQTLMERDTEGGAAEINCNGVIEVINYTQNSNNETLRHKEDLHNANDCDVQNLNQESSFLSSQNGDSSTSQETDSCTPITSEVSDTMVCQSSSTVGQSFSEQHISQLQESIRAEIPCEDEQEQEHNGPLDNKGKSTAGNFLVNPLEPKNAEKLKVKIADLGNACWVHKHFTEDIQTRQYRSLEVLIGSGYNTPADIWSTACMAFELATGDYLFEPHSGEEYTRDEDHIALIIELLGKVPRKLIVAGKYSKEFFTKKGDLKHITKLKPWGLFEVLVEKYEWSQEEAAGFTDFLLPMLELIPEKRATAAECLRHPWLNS
Assay Readout: IC50 (nM)
Field: numeric (nM). Do not append units.

Some entries whose results are on file:
Molecule	Unit Text	Result Value
CC1(O)CCN(c2ccc(C(F)(F)F)cc2NC(=O)c2ccc(C3CCOCC3)o2)CC1	nM	3
CC1(O)CCCN(c2ccc(Cl)cc2NC(=O)c2ccc(-c3ccncc3)o2)CC1 (racemic)	nM	4
O=C(Nc1cc(C(F)(F)F)ccc1N1CCCC(O)CC1)c1ccccn1 (racemic)	nM	3.4

From here, focus on the item given below.
// query Returns the measured IC50 for the input molecule. Input: `CC1(O)CCN(c2ccc(Cl)cc2NC(=O)c2ccccn2)CC1`
// result 25

* * *

Below, each entry is listed alongside its reported IC50.
biological target: CYP3A4 (Homo sapiens); construct: from tissue; host or cells: human liver microsomes; experiment: CYP inhibition assay, human liver microsomes, substrate midazolam; assay type: in vitro ADME; conditions: human liver microsomes, 10 min incubation, LC-MS/MS; read-out: CYP Inhibition Activity (IC50/nM) CYP3A4
Sequence (P08684 whole entry): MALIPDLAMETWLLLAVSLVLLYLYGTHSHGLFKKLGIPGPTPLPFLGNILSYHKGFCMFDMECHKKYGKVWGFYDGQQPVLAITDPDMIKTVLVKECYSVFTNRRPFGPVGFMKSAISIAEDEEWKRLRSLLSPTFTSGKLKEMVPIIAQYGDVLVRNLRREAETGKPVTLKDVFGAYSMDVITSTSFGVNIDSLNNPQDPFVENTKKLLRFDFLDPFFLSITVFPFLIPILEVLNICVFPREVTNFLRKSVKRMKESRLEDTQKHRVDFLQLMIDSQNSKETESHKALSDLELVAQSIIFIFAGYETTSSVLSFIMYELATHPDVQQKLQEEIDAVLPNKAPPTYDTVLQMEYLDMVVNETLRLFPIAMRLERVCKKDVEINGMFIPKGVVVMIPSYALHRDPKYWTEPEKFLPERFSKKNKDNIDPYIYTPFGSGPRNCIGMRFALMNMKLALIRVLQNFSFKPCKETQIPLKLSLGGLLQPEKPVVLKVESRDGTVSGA
Field: numeric (nM). Do not append units.

Some entries whose results are on file:
Compound	IC50 (nM)
Cc1ccc(N2CCC(C)(CN(C)C)CC2)c(NC(=O)c2ccc(C3CCOCC3)o2)c1 [Example 94]	23100
O=C(Nc1cc(C2CC2)ccc1N1CCCC(O)CC1)c1ccc(C2CCOCC2)o1 (racemic) [Example 49]	17200

// query Returns the measured IC50 for the input compound. Input: COC1(C)CCN(c2ccc(C(F)(F)F)cc2NC(=O)c2ccc(C3CCOCC3)o2)CC1 [Example 18]
// result 9800

// query Returns the measured IC50 for the input compound. Input: CN(C)C(=O)C1(C)CCN(c2ccc(C(F)(F)F)cc2NC(=O)c2ccc(C3CCOCC3)o2)CC1 [Example 77]
// result 970

// query Returns the measured IC50 for the input compound. Input: CC1(C(=O)O)CCN(c2ccc(C(F)(F)F)cc2NC(=O)c2ccc(-c3ccncc3)o2)CC1 [Example 26]
// result 4440

// query Returns the measured IC50 for the input compound. Input: Cc1ccc(N2CCC(C)(C(=O)N(C)C)CC2)c(NC(=O)c2ccc(C3CCOCC3)o2)c1 [Example 87]
// result 5900

// query Returns the measured IC50 for the input compound. Input: O=C(Nc1cc(C(F)(F)F)ccc1N1CCN(Cc2ccccn2)CC1)c1ccc(-c2ccncc2)o1 [Reference Example 1, reference compound]
// result 310

* * *

Below, each entry is listed alongside its reported IC50.
target: CYP2C19 (Homo sapiens); construct: from tissue; host or cells: human liver microsomes; experiment: CYP inhibition assay, human liver microsomes, substrate S-mephenytoin; format: in vitro ADME; settings: human liver microsomes, 10 min incubation, LC-MS/MS; read-out: CYP Inhibition Activity (IC50/nM) CYP2C19
Sequence (P33261 whole entry): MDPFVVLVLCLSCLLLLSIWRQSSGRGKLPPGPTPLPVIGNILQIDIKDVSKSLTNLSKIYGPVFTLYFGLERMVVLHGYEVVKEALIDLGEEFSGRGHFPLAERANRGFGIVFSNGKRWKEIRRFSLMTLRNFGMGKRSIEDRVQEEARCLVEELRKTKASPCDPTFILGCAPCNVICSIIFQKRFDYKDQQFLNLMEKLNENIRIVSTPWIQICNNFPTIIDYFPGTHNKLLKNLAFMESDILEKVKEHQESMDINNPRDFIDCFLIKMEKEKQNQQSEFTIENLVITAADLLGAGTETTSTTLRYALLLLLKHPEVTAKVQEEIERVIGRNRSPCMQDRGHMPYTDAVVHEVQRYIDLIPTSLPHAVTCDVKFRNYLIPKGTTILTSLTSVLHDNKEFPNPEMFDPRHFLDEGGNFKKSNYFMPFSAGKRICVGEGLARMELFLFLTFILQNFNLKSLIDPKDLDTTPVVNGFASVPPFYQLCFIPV
Field: numeric (nM). Do not append units.

Some entries whose results are on file:
Compound	Result Value
CC1(O)CCN(c2ccc(C(F)(F)F)cc2NC(=O)c2ccc(C3CCOCC3)o2)CC1 [Example 11]	10200
CC1(O)CCCN(c2ccc(Cl)cc2NC(=O)c2ccc(C3CCOCC3)o2)CC1 (racemic) [Example 41]	370
Cc1ccc(N2CCC(O)(CC3CC3)CC2)c(NC(=O)c2ccc(C3CCOCC3)o2)c1 [Example 70]	2200
CC1(O)CCN(c2ccc(C(F)(F)F)cc2NC(=O)c2ccc(-c3ccncc3)o2)CC1 [Example 4]	2480
C[C@@]1(O)CCN(c2ccc(C(F)(F)F)cc2NC(=O)c2ccc(C3CCOCC3)o2)C1 [Example 50]	24500
O=C(Nc1cc(C(F)(F)F)ccc1N1CCC(O)(c2ccccc2)CC1)c1ccc(C2CCOCC2)o1 [Example 22]	12300

From here, focus on the item given below.
// query Returns the measured IC50 for the input compound. Input: Cc1ccc(N2CCC(C)(CN(C)C)CC2)c(NC(=O)c2ccc(C3CCOCC3)o2)c1 [Example 94]
// result 25100

* * *

Below, each entry is listed alongside its reported IC50.
Target: CYP1A2 (Homo sapiens, UniProt P05177)
Construct: from tissue; host or cells: human liver microsomes
Sequence (P05177 1-516): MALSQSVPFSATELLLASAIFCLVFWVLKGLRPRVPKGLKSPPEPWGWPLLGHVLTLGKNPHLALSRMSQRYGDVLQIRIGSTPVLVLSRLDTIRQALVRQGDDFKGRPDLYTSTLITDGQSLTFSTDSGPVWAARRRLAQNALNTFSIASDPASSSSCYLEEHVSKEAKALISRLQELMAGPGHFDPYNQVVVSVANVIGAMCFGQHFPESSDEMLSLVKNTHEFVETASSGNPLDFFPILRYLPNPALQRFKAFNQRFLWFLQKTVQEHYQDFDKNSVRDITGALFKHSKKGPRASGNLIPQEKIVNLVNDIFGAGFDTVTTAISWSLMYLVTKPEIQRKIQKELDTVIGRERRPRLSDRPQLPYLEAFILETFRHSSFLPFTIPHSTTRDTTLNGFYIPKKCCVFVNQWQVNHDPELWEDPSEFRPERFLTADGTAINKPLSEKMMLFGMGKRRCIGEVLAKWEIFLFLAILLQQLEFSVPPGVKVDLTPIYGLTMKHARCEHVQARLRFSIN
Experiment: CYP inhibition assay, human liver microsomes, substrate tacrine
Format: in vitro ADME
Conditions: human liver microsomes, 10 min incubation, LC-MS/MS; read-out: CYP Inhibition Activity (IC50/nM) CYP1A2
Field: numeric (nM). Do not append units.

Some entries whose results are on file:
Compound	IC50, nM
COc1ccc(N2CCC(C)(O)CC2)c(NC(=O)c2ccc(-c3ccncc3)o2)c1	4990
CC1(O)CCN(c2ccc(Cl)cc2NC(=O)c2ccccn2)CC1	5890
O=C(Nc1cc(Cl)ccc1N1CCCC(O)CC1)c1ccc(-c2ccncc2)o1 (racemic)	550

From here, focus on the item given below.
// query Item `CC1(O)CCN(c2ccc(OC(F)(F)F)cc2NC(=O)c2ccc(C3CCOCC3)o2)CC1` with CYP1A2 (Homo sapiens, UniProt P05177) - IC50?
// result 26700
